Origin of measurements: PubChem BioAssay

experiment: modulators of S6 phosphorylation in cells, primary screen, cell-based, A549, cytoblot, luminescence, serum-stimulated (AID 1158); details: A549 phospho-S6 cytoblot, 5 h, higher = more signal;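 also: serum-stimulated A549 lung adenocarcinoma cells; signal is phosphorylated S6 detected by cytoblot immunostaining with HRP secondary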
A collection of molecules and their measured z-score
Enter the number alone.

Consider the following illustrative entries.
NCCCCCCNC(=O)[C@@H]1C[C@@H]2C(=O)N3CCC[C@H]3C(=O)N2[C@@H]1c1ccc(O)cc1 ... -0.164
O=C1c2ccccc2[C@](Cc2ccccc2I)(C(=O)NCc2ccccc2)[C@H](c2ccc(CO)cc2)N1C1CCCCC1 ... 3.43
COC(=O)[C@@]1(Cc2ccccc2)[C@H]2c3cc(C(=O)N4CCCC4)n(Cc4cc(F)cc5c4OCOC5)c3C[C@H]2CN1C(=O)c1ccccc1 ... -0.163

Asked: Entry `C[C@H]1ON(c2ccc(C(=O)OC(C)(C)C)cc2)[C@@H](c2ccc(O)cc2)[C@@H]1C(=O)N1C(=O)OC[C@@H]1c1ccccc1` : reported z-score = ?
Given back: 0.433

Asked: May I ask what z-score has been recorded for `NC(=O)NCC#Cc1ccc2c(c1)[C@]1(C(=O)N2)[C@H](C(=O)Nc2nc3ccccc3s2)[C@H]2C(=O)O[C@H](c3ccccc3)[C@H](c3ccccc3)N2[C@@H]1c1ccc(O)cc1` ?
Given back: -0.0609

Asked: So what's the measured z-score for this one? `Cc1ccc(S[C@]2(C(=O)NCC(F)(F)F)CC(=O)N(Cc3ccccc3)[C@@H]2c2ccc(CO)cc2)cc1`
Given back: 1.98

Asked: Bench note: what z-score did [N-]=[N+]=NCc1ccccc1C[C@]1(C(=O)NCC(O)CO)N=C(c2ccc(OCCCO)cc2)O[C@H]1c1ccccc1CN=[N+]=[N-] (some centres not stated) show?
Given back: 1.67
